molecular target: recombinant human uPAR containing a His-tag (immobilized to a NTA chip) (human) (UniProt Q03405); assay: SPR, His-tagged human uPAR on NTA chip, steady-state responses
Sequence (Q03405 23-305 limits assumed): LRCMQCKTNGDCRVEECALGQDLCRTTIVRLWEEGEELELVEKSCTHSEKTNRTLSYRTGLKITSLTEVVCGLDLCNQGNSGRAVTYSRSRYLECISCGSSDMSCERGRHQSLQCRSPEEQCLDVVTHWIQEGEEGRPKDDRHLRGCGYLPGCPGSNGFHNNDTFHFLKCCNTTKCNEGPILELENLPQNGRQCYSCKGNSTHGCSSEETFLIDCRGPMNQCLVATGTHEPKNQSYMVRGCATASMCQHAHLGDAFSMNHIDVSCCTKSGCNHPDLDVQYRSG
pKd: −log10 of the molar value. Primed or numbered codes have the meaning given here. [ ]: non-standard residue; d: D form. Cha = N[C@@H](CC1CCCCC1)C(=O)O; IRDye800CW′ = not defined here; AEEA = NCCOCCOCC(=O)O

[
  {
    "Binder": "{IRDye800CW′}-EE[AEEA][AEEA]D[Cha]F[dS][dR]YLWS-OH",
    "pKd": 6.49
  }
]
